Experiment: SPR (Biacore) on chip coated with BSA conjugated to COMPOUND 2
Assay type: binding
Conditions: 37° C.; Fab over COMPOUND 2-BSA surface; apparent
Recorded koff, dissociation rate constant, one value per entry.
Form field: result (number plus unit)

24H1-GQTV-Fab-LONG: antibody Fab fragment; VH SEQ ID NO: 80, VL SEQ ID NO: 98; sequence in Table 3 (antibody, V domains shown) VH: EVQLVESGGGLIQPGGSLRLSCAASGFTVSRNYMSWVRQAPGKGLEWVSFIYSGGSTYYADSVKGRFTISRDNSKNTLYLQMNSLRAEDTAVYYCARGGFGGGDYWGQGTLVTVSS VL: DIQMTQSPSSVSASVGDRVTITCRASQGISSWLAWYQHKPGKAPKLLIYAASSLQSGVPSRFSGSGSGTDFTLTISSLQPEDFATYYCQQANSFPLTFGGGTKVEIK :: 0.001 s⁻¹
26D5-295-C08-Fab-LONG: antibody Fab fragment; VH SEQ ID NO: 62, VL SEQ ID NO: 88; sequence in Table 3 (antibody, V domains shown) VH: EVQLVESGGGLIQPGGSLRLSCAASGFQVSSNAMSWVRQAPGKGLEWVSFIYPGGRTYYADSVKGRFTISRDNSKNTLYLQMNSLRAEDTAVYYCARGGFGGGDYWGQGTLVTVSS VL: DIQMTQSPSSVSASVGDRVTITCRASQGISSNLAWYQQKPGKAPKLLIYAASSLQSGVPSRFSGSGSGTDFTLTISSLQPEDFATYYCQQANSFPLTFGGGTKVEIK :: 8.5e-05 s⁻¹
26D5-GVR-Q-FT-Fab-SHORT: antibody Fab fragment; VH SEQ ID NO: 81, VL SEQ ID NO: 99; sequence in Table 3 (antibody, V domains shown) VH: EVQLVESGGGLIQPGGSLRLSCAASGFTVSRNYMSWVRQAPGKGLEWVSFIYSGGRTYYADSVKGRFTISRDNSKNTLYLQMNSLRAEDTAVYYCARGGFGGGDYWGQGTLVTVSS VL: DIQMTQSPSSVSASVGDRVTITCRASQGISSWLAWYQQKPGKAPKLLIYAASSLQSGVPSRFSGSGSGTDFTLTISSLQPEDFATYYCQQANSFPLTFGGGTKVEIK :: 0.0013 s⁻¹
26D5-GVR-H-Fab-LONG: antibody Fab fragment; VH SEQ ID NO: 81, VL SEQ ID NO: 98; sequence in Table 3 (antibody, V domains shown) VH: EVQLVESGGGLIQPGGSLRLSCAASGFTVSRNYMSWVRQAPGKGLEWVSFIYSGGRTYYADSVKGRFTISRDNSKNTLYLQMNSLRAEDTAVYYCARGGFGGGDYWGQGTLVTVSS VL: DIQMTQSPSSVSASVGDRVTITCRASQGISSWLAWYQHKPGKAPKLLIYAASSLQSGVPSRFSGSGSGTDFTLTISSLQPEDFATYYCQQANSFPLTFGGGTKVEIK :: 0.001 s⁻¹

Incoming: Give the measured koff, dissociation rate constant of 26D5-295-B08-Fab-LONG: antibody Fab fragment; VH SEQ ID NO: 60, VL SEQ ID NO: 88; sequence in Table 3 (antibody, V domains shown) VH: EVQLVESGGGLIQPGGSLRLSCAASGFTVSSNAMSWVRQAPGKGLEWVSFIYPGGRTYYADSVKGRFTISRDNSKNTLYLQMNSLRAEDTAVYYCARAGFGGGDYWGQGTLVTVSS VL: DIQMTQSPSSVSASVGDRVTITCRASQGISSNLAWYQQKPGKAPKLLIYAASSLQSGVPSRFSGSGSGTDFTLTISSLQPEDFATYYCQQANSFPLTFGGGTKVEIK .
Outgoing: 0.00022 s⁻¹

Incoming: Any idea what koff, dissociation rate constant was measured for 26D5-GVR-Q-FT-Fab-LONG: antibody Fab fragment; VH SEQ ID NO: 81, VL SEQ ID NO: 99; sequence in Table 3 (antibody, V domains shown) VH: EVQLVESGGGLIQPGGSLRLSCAASGFTVSRNYMSWVRQAPGKGLEWVSFIYSGGRTYYADSVKGRFTISRDNSKNTLYLQMNSLRAEDTAVYYCARGGFGGGDYWGQGTLVTVSS VL: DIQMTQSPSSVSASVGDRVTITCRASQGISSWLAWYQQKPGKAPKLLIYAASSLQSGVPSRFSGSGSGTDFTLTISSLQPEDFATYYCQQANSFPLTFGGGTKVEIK ?
Outgoing: 0.0016 s⁻¹

Values were extracted from patent US12065505B2.
